- Tested on: Streptococcus uberis (Su)
- Format: cell-based
No end group written: not given here.
Property: MIC Su; scope: individual substances
Remember to follow the number with its unit.

Recorded results for 5 substances are shown here.
{"substance": "AVKWLGWILAKK-NH2 [Peptide 3016, AVKWLGWILAKK]", "MIC Su": "16 µg/mL"}
{"substance": "LWQLWLKLKLKG-NH2 [Peptide 3013, LWQLWLKLKLKG]", "MIC Su": "4 µg/mL"}
{"substance": "QLARLARVVWGL-NH2 [Peptide 3010, QLARLARVVWGL]", "MIC Su": "64 µg/mL"}
{"substance": "KIVIRIILQVIK-NH2 [Peptide 3015, KIVIRIILQVIK]", "MIC Su": "64 µg/mL"}
{"substance": "LAGLIVKWAGVR-NH2 [Peptide 3017, LAGLIVKWAGVR]", "MIC Su": "64 µg/mL"}

// moving on: another record for MIC Su
Which MIC Su is listed for AVAKWALKLWKQ-NH2 [Peptide 3009, AVAKWALKLWKQ] ? 32 µg/mL
